Give measured inhibition at 10 µM for each item. Keep answers brief.
target: IL-4 (Homo sapiens, UniProt P05112); construct: purchased Acros Biosystems IL4-H4218; host or cells: HEK-293; test: HEK-Blue IL-4/IL-13 reporter assay, IL-4 inhibition; assay type: cell-based; conditions: HEK-Blue, 10 μM, IL-4, HEK Blue IL-4/IL-13 reporter assay; read-out: % Inhibition
Sequence (P05112 25-153): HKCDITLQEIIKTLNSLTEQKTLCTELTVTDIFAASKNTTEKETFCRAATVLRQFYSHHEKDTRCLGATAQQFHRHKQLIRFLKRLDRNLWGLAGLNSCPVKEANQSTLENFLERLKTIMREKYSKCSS
Answers are plain numbers, in %.

SMI	inhibition at 10 µM [%]
Cc1ccc(-c2cc(-c3ccc(F)cc3)[nH]c(=O)c2C#N)o1	0.48

For each of the compounds below, state inhibition at 10 µM.
1. N#Cc1c(-c2ccc(O)c(C(=O)O)c2)cc(-c2ccc(F)cc2)[nH]c1=N
2. N#Cc1c(-c2ccccc2)cc(-c2ccc(F)cc2)[nH]c1=O

A.
1. 54.6
2. 27.6

----------
biological target: IL-4 (Homo sapiens); construct: purchased Acros Biosystems IL4-H4218; host or cells: HEK-293; assay: HEK-Blue IL-4/IL-13 reporter assay, IL-4 inhibition; assay type: cell-based; conditions: HEK-Blue, 10 μM, IL-4, HEK Blue IL-4/IL-13 reporter assay
OBSERVABLE: inhibition at 10 µM

N#Cc1c(-c2ccc(O)c(O)c2)cc(-c2ccc(O)cc2)[nH]c1=N > 80%
Cc1ccc(-c2cc(-c3ccc(O)c(O)c3)c(C#N)c(=N)[nH]2)cc1 > 80%

# input for lookup
Q. Quick one: give measured inhibition at 10 µM for "N#Cc1c(-c2ccc(O)c(O)c2)cc(-c2ccc(N)cc2)[nH]c1=N"
A. > 80%
